Active and inactive are the calls of the source.
System: Receptor-interacting serine/threonine-protein kinase 3 (Homo sapiens, UniProt Q9Y572) | Read-out: Kd; also: in the data inactive means no Kd found up to 30 µM
Sequence (Q9Y572 whole entry): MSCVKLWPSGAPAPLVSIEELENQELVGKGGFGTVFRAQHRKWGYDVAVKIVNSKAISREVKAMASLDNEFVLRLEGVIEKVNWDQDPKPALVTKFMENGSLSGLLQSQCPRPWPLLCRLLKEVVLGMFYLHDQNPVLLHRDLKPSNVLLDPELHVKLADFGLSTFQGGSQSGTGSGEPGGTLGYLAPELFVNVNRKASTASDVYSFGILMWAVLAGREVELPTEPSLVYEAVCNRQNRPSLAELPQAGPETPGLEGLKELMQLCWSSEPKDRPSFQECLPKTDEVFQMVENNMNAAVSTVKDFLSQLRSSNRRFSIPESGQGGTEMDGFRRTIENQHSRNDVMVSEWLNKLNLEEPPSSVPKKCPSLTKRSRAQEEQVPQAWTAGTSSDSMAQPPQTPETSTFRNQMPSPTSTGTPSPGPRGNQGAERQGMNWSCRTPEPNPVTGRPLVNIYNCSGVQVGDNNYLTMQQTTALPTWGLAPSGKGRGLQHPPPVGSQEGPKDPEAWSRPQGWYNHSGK

Use the examples below as a reference point.
Recall the reported Kd of C=CC(=O)Nc1cc(Nc2nccc(-c3cn(C)c4ccccc34)n2)c(OC)cc1N(C)CCN(C)C on Receptor-interacting serine/threonine-protein kinase 3 (Homo sapiens, UniProt Q9Y572) and write it down.
> 30 µM (inactive)

Fill in Kd for O=C(NOC[C@H](O)CO)c1ccc(F)c(F)c1Nc1ccc(I)cc1F tested with Receptor-interacting serine/threonine-protein kinase 3 (Homo sapiens, UniProt Q9Y572).
> 30 µM (inactive)

# return Kd of O=c1[nH]c([C@@H]2CCCN2)nc2c1oc1ccc(Cl)cc12 (system: Receptor-interacting serine/threonine-protein kinase 3 (Homo sapiens, UniProt Q9Y572)); also: in the data inactive means no Kd found up to 30 µM
> 30 µM (inactive)

Give Kd for O=C(Nc1ccc(OC(F)(F)F)cc1)c1sccc1NCc1ccnc2ccccc12 tested on Receptor-interacting serine/threonine-protein kinase 3 (Homo sapiens, UniProt Q9Y572). Also: in the data inactive means no Kd found up to 30 µM.
1.7 µM (active)

Report measured Kd on Receptor-interacting serine/threonine-protein kinase 3 (Homo sapiens, UniProt Q9Y572); entry: N#CCNC(=O)c1ccc(-c2ccnc(Nc3ccc(N4CCOCC4)cc3)n2)cc1
> 30 µM (inactive)

For the next question, use this compound.
Name the recorded Kd of CC1(C)CNc2cc(NC(=O)c3cccnc3NCc3ccncc3)ccc21 , assay system Receptor-interacting serine/threonine-protein kinase 3 (Homo sapiens, UniProt Q9Y572). Also: in the data inactive means no Kd found up to 30 µM.
1.04 µM (active)

###

The source made the active and inactive calls.
Kd values recorded for Myosin-14 (Homo sapiens, UniProt Q7Z406)

GET Kd where system = Myosin-14 (Homo sapiens, UniProt Q7Z406) and item = CCc1nc(C(N)=O)c(Nc2ccc(N3CCC(N4CCN(C)CC4)CC3)c(OC)c2)nc1NC1CCOCC1 [GILTERITINIB]; also: in the data inactive means no Kd found up to 30 µM
Sequence (Q7Z406 whole entry): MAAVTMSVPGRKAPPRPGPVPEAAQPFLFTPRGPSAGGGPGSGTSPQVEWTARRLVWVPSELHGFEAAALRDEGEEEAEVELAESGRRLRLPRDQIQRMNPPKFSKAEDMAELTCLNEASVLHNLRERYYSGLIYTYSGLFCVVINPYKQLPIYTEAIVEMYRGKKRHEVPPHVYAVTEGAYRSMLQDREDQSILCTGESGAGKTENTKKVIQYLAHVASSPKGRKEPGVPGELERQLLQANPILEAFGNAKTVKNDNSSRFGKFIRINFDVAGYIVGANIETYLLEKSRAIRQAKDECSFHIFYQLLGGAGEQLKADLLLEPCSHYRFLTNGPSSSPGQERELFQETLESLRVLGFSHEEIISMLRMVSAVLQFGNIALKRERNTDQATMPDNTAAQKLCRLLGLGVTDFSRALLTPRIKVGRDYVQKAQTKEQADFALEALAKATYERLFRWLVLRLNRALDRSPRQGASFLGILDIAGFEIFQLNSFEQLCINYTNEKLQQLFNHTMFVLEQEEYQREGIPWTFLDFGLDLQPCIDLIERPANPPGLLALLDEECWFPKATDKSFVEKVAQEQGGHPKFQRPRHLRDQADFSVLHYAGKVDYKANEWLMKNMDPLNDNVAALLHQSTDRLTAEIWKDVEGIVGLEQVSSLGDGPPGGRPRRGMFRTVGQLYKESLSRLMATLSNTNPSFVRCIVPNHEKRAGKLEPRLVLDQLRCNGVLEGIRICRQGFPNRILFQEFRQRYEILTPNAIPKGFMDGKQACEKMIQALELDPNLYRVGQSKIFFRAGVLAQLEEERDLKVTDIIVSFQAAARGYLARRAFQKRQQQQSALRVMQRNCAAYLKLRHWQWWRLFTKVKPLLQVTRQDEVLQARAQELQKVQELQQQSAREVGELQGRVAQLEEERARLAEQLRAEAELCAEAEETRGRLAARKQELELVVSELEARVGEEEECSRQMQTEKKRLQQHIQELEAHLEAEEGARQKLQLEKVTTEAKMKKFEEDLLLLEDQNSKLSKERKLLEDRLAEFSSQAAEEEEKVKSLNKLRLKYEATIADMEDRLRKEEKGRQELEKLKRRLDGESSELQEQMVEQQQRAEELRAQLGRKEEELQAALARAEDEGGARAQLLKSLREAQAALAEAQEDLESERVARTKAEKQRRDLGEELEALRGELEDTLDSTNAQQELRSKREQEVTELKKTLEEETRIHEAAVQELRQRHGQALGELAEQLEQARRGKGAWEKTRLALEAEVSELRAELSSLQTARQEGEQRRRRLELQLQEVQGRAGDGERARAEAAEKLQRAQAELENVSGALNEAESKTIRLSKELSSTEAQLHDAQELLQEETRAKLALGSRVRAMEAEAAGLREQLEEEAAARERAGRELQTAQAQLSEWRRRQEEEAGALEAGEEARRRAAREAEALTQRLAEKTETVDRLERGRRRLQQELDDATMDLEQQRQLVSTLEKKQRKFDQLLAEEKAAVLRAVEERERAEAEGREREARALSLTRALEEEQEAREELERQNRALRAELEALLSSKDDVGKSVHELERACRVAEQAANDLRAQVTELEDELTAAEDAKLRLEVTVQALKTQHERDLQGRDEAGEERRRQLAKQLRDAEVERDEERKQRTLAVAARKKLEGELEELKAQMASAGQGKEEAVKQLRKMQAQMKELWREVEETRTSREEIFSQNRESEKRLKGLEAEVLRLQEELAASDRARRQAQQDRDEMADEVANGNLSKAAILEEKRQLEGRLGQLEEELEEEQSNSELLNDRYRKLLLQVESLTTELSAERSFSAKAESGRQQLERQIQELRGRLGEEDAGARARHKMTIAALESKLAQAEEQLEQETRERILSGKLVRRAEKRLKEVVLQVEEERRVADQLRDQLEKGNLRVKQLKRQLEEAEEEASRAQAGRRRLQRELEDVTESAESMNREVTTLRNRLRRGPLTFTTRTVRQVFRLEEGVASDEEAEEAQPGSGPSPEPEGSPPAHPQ
> 30 µM (inactive)

For Myosin-14 (Homo sapiens, UniProt Q7Z406), give Kd of the listed compound: C=CC(=O)Nc1cccc(Nc2nc(Nc3ccc(N4CCN(C(C)=O)CC4)cc3OC)ncc2C(F)(F)F)c1 [ROCILETINIB]
> 30 µM (inactive)

Provide the reported Kd (system: Myosin-14 (Homo sapiens, UniProt Q7Z406)) for O=c1[nH]c([C@@H]2CCCN2)nc2c1oc1ccc(Cl)cc12; also: in the data inactive means no Kd found up to 30 µM
> 30 µM (inactive)

###

measurement-target: Cyclin-dependent kinase 1 (Homo sapiens); also: in the data inactive means no Kd found up to 30 µM
Sequence (P06493 whole entry): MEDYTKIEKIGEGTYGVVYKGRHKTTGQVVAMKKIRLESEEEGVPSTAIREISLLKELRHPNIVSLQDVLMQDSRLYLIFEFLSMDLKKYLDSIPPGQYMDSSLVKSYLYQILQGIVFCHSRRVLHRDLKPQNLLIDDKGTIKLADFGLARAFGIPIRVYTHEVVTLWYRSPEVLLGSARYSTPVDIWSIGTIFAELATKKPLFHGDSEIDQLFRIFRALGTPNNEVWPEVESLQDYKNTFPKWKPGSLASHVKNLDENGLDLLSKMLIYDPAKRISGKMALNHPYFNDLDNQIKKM
Activity calls are given as the source filed them.
Pick one: 1 = active, 0 = inactive

Hey, what did the test say about CC1(COc2ccc3c(c2)ncn3-c2ccc3cccc(N4CCC(N)CC4)c3n2)COC1 ?
1

Record lookup: outcome of this test for Cn1cc(-c2[nH]c3cc(NC(=O)[C@H](N)C4CCCCC4)cc4c3c2C=NNC4=O)cn1 ?
0

Outcome? C=CCN(/C=C1/C(=O)O[C@H](COC)[C@@]2(C)C1=C(O)C(=O)C1=C2[C@H](OC(C)=O)C[C@]2(C)C(=O)CC[C@@H]12)CC=C
0

Given COc1ccc(-c2ccc3ncc4c(c3c2)n(-c2ccc(N3CCNCC3)c(C(F)(F)F)c2)c(=O)n4C)cn1 [BGT-226 FREE BASE] , state the outcome it received in this test.
0

What did this assay record as the result for C#Cc1cccc(Nc2ncnc3cc4c(cc23)OCCOCCOCCO4)c1 ?
0

---
Test call, this compound: Cn1cnc2c(F)c(Nc3ccc(Br)cc3Cl)c(C(=O)NOCCO)cc21
0

Please share the test call associated with O=c1[nH]c([C@@H]2CCCN2)nc2c1oc1ccc(Cl)cc12 .
0

Returns: the outcome recorded for C=CC(=O)Nc1cc(Nc2nccc(-c3cn(C)c4ccccc34)n2)c(OC)cc1N(C)CCN(C)C in this assay.
0

# fetch the recorded call for CC1(C)CNc2cc(NC(=O)c3cccnc3NCc3ccncc3)ccc21 here
0

Field: outcome | Entry: C=CC(=O)Nc1cccc(Nc2nc(Nc3ccc(N4CCN(C(C)=O)CC4)cc3OC)ncc2C(F)(F)F)c1
0

Called result for O=S(=O)(c1cccc2c(O)nccc12)N1CCCNCC1 [HYDROXYFASUDIL]
0

Just curious, what result did CN(c1ncccc1CNc1nc(Nc2ccc3c(c2)CC(=O)N3)ncc1C(F)(F)F)S(C)(=O)=O get here?
1

Answer briefly: the call reported for CCOc1ccn(-c2ccc(F)cc2)c(=O)c1C(=O)Nc1ccc(Oc2ccnc(N)c2Cl)c(F)c1 in this assay.
0

State the result this test recorded for Cc1cc(Nc2nc(N[C@@H](C)c3ncc(F)cn3)ncc2Cl)n[nH]1 .
0

Could you please tell me the result logged for COc1cc2ncnc3c2cc1OCCCCCN(C)Cc1ccc(Br)cc1N3 in this assay?
0

Test call, this compound: NC[C@@](O)(c1ccc(Cl)cc1)c1ccc(-c2cn[nH]c2)cc1
0

Outcome logged for Cn1c(=O)c(F)c(Nc2ccc(I)cc2F)c2c(=O)n(C[C@@H](O)CO)cnc21 in this assay:
0

Per the records of this test, what outcome belongs to CC(C)(O)CC(=O)NCCn1ccc2ncnc(Nc3ccc(Oc4cccc(C(F)(F)F)c4)c(Cl)c3)c21 ?
0

Which outcome was entered for the compound CNC(=O)c1cc(COc2nnc(Nc3ccc(Cl)cc3)c3ccoc23)ccn1 in this test?
0

Dear colleague, could you share the recorded outcome for Cn1c(=O)n(-c2ccc(C(C)(C)C#N)cc2)c2c3cc(-c4cnc5ccccc5c4)ccc3ncc21 when you have a moment?
0

Recorded call for C=CCn1c(=O)c2cnc(Nc3ccc(N4CCN(C)CC4)cc3)nc2n1-c1cccc(C(C)(C)O)n1 ?
0

Which outcome was entered for the compound CCc1cc2c(cc1N1CCC(N3CCOCC3)CC1)C(C)(C)c1[nH]c3cc(C#N)ccc3c1C2=O in this test?
0

Which outcome did this test record for the compound COc1cc(F)c(F)c(Nc2ccc(I)cc2F)c1NS(=O)(=O)C1(C[C@H](O)CO)CC1 ?
0

What did this assay record as the result for CN(C)C/C=C/C(=O)Nc1cc2c(Nc3ccc(F)c(Cl)c3)ncnc2cc1O[C@H]1CCOC1 ?
0

###

measurement-target: Serine/threonine-protein kinase D3 (Homo sapiens, UniProt O94806); also: in the data inactive means no Kd found up to 30 µM
Sequence (O94806 whole entry): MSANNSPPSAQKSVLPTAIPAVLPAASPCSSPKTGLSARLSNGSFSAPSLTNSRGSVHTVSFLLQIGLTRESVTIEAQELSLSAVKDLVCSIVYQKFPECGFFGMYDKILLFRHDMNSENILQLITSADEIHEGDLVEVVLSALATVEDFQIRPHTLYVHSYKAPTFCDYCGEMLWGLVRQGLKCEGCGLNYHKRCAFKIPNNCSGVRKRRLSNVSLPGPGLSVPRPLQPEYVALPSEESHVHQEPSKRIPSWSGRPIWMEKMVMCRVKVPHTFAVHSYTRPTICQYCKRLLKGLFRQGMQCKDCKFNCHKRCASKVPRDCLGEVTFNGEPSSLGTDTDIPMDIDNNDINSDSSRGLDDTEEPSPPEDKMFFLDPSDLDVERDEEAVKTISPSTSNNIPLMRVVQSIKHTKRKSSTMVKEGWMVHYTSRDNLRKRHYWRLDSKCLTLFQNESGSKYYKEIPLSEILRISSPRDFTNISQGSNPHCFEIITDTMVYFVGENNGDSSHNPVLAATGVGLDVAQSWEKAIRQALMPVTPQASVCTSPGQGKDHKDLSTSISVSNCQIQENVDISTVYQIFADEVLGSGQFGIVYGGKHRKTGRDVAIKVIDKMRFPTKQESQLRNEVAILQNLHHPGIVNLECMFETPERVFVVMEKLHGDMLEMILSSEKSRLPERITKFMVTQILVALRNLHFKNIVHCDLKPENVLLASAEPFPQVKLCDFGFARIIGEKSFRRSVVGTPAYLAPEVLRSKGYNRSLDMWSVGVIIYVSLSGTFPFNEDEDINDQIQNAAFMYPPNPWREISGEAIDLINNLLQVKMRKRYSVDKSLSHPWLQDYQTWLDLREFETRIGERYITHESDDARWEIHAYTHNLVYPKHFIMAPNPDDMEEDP
Calls of active or inactive are those of the source.
Pick from T = active, F = inactive when you respond.

Past entries and their recorded results:
Outcome logged for Cc1cc(-c2cc(OC(=O)c3ccccc3)ccc2Cl)cc2nnc(Nc3ccc(OCCN4CCCC4)cc3)nc12 in this assay:
F

Could you kindly confirm the outcome this assay logged for Cc1ccc(C(=O)Nc2ccc(Oc3cc4cnn(C)c4cc3-c3cn[nH]c3)c(F)c2)c(=O)n1-c1ccc(F)cc1 ?
F

What classification did COCCN1CCN(Cc2ccc(-c3n[nH]c4c3C(=O)c3c(NC(=O)NN5CCOCC5)cccc3-4)cc2)CC1 end up with in this test?
T

Could you check what this test reported for c1cc(OCCN2CCCCC2)cc(-c2n[nH]c3ccc(-c4nc[nH]n4)cc23)c1 ?
T

Hi, sorry to bother you, what did the test record for CCOc1ccn(-c2ccc(F)cc2)c(=O)c1C(=O)Nc1ccc(Oc2ccnc(N)c2Cl)c(F)c1 ?
F

Continuing:
Which outcome was entered for the molecule COc1cccc(Nc2ncnn3ccc(CN4CC[C@@H](N)[C@H](O)C4)c23)c1 in this test?
T

Tell me the recorded outcome of this test for C=CC(=O)Nc1cccc(Nc2nc(Nc3ccc(N4CCN(C(C)=O)CC4)cc3OC)ncc2C(F)(F)F)c1 .
F

###

measurement-target: Uncharacterized aarF domain-containing protein kinase 5 (Homo sapiens, UniProt Q3MIX3); also: in the data inactive means no Kd found up to 30 µM
Sequence (Q3MIX3 whole entry, the tested form may be a part): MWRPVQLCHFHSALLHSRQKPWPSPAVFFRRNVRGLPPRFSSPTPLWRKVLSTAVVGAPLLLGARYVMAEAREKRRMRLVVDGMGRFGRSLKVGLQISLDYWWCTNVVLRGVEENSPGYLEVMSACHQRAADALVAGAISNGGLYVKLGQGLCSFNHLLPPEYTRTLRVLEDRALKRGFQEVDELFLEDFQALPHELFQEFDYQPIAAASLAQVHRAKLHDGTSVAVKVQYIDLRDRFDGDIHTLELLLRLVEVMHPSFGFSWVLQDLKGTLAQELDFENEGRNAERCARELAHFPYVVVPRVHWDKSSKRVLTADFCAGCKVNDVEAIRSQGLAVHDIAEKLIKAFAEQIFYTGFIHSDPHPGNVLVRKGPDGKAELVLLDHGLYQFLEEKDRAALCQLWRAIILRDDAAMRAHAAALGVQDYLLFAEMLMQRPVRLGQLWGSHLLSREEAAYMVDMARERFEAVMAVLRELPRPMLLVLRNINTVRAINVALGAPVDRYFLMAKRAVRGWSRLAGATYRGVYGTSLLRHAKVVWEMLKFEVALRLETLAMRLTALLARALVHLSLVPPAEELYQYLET
The source made the active and inactive calls.
endpoint-label: Kd

Send back Uncharacterized aarF domain-containing protein kinase 5 (Homo sapiens, UniProt Q3MIX3) Kd of COc1ccc2c(OCc3nnc4ccc(-c5ccccc5)nn34)ccnc2c1 only.
> 30 µM (inactive)

State the measured Kd (Uncharacterized aarF domain-containing protein kinase 5 (Homo sapiens, UniProt Q3MIX3)) of Cn1c(=O)n(-c2ccc(C(C)(C)C#N)cc2)c2c3cc(-c4cnc5ccccc5c4)ccc3ncc21
> 30 µM (inactive)

Please tell me the measured Kd for CN1CCN(c2nc(C3=C(c4c[nH]c5ccccc45)C(=O)NC3=O)c3ccccc3n2)CC1 ; system: Uncharacterized aarF domain-containing protein kinase 5 (Homo sapiens, UniProt Q3MIX3). Also: in the data inactive means no Kd found up to 30 µM.
> 30 µM (inactive)

Report Kd under test system Uncharacterized aarF domain-containing protein kinase 5 (Homo sapiens, UniProt Q3MIX3) for CNC(=O)c1cccc(-c2ccc3c(N4CCOC[C@@H]4C)nc(N4CCOC[C@@H]4C)nc3n2)c1 . Also: in the data inactive means no Kd found up to 30 µM.
> 30 µM (inactive)

Look up and report Kd, with Uncharacterized aarF domain-containing protein kinase 5 (Homo sapiens, UniProt Q3MIX3) as system, for O=C(Nc1ccc(OC(F)(F)F)cc1)c1sccc1NCc1ccnc2ccccc12
> 30 µM (inactive)

More entries:
Report Kd from Uncharacterized aarF domain-containing protein kinase 5 (Homo sapiens, UniProt Q3MIX3) testing of COc1cc(Nc2ncc(F)c(Nc3ccc4c(n3)N(COP(=O)(O)O)C(=O)C(C)(C)O4)n2)cc(OC)c1OC
> 30 µM (inactive)

State recorded Kd with Uncharacterized aarF domain-containing protein kinase 5 (Homo sapiens, UniProt Q3MIX3), entry COCCN1CCN(Cc2ccc(-c3n[nH]c4c3C(=O)c3c(NC(=O)NN5CCOCC5)cccc3-4)cc2)CC1 , no comment.
> 30 µM (inactive)
